Where do the numbers come from? From ChEMBL document CHEMBL2095176.

Each record here notes measured log10(solubility kinetic).
Protocol Text: physchem
Experimental Setup: phosphate buffered saline, pH 7.4
Scale: log10; quantity: solubility kinetic; unit before log: µM

Smiles Str: CCCCc1ccc(C(=O)Nc2nccc3ccccc23)nc1
Experimental Result: 1.99
--
Smiles Str: COc1ccc(-c2cc(NC(=O)c3ccc(F)cc3Cl)ccc2OC)cc1
Experimental Result: 0.00
--
Smiles Str: O=C(OCc1c(F)cccc1Cl)c1ccc(-n2ncc(Cl)c(Cl)c2=O)cc1
Experimental Result: 1.34

**Query** For the compound shown here, Br.CCCc1cc(C(C)=O)ccc1OCCCON1C(=N)N=C(N)NC1(C)C , give the reported log10(solubility kinetic).
**Result** 2.30

**Query** Quick one: log10(solubility kinetic) of Cc1ccccc1CN1CCC(O)(c2ccc(Cl)c(C(F)(F)F)c2)CC1 ?
**Result** 1.89

**Query** Which log10(solubility kinetic) reading was recorded for the compound COc1ccccc1OCCCCn1c(C2CC2)nc2ccccc21 ?
**Result** 2.22

**Query** Param item = O=C(CCCSc1ccccc1)NNC(=O)c1cccs1 ; retrieve measured log10(solubility kinetic).
**Result** 2.75
